test: Protein binding in human plasma; assay type: ADME, cell-free; details: read-out: PPB (converted)
propertyLabel: fraction unbound

O=C(N[C@@H](c1ccccc1)c1ccc(-c2cccc(OCc3ccc(C(=O)N(CCCNC[C@H](O)c4ccc(O)c5[nH]c(=O)ccc45)Cc4ccccc4)cc3)c2)cc1)O[C@H]1CN2CCC1CC2
< 0.01
CCN(CCCNC[C@H](O)c1ccc(O)c2[nH]c(=O)ccc12)C(=O)c1ccc(COc2cccc(-c3ccc([C@@H](NC(=O)O[C@H]4CN5CCC4CC5)c4ccccc4)cc3)c2)cc1
0.04
O=C(N[C@@H](c1ccccc1)c1ccc(-c2cccc(OCc3ccc(C(=O)NCCCNC[C@H](O)c4ccc(O)c5[nH]c(=O)ccc45)cc3)c2)cc1)O[C@H]1CN2CCC1CC2
0.05

----------
target: Beta-2 adrenergic receptor (Homo sapiens)
Sequence (P07550 whole entry): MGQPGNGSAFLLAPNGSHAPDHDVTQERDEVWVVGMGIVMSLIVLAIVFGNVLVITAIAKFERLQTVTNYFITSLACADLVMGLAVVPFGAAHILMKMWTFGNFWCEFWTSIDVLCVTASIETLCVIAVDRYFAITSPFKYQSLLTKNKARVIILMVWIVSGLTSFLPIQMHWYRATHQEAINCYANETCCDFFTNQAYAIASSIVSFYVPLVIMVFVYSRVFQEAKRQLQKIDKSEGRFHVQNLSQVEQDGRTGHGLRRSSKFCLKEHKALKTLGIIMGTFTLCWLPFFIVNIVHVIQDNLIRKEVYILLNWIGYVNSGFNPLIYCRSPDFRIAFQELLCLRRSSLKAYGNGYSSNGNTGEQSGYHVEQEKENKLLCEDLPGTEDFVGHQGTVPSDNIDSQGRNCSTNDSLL
pKi: −log10 of the molar value.
As shown below, each of these compounds has a reported pKi value.
propertyLabel: pKi

O=C(N[C@@H](c1ccccc1)c1cccc(OCCCCCCNC[C@H](O)c2ccc(O)c3[nH]c(=O)ccc23)c1)O[C@H]1CN2CCC1CC2
9.30
CCN(CCCNC[C@H](O)c1ccc(O)c2[nH]c(=O)ccc12)C(=O)c1ccc(COc2cccc(-c3ccc([C@@H](NC(=O)O[C@H]4CN5CCC4CC5)c4ccccc4)cc3)c2)cc1
10.30
O=C(NC(c1ccccc1)c1cccc(OCCCCCCCCNC[C@H](O)c2ccc(O)c3[nH]c(=O)ccc23)c1)O[C@H]1CN2CCC1CC2 (stereo partly specified)
9.70
O=C(NC(c1ccccc1)c1cccc(OCCCCCNC[C@H](O)c2ccc(O)c3[nH]c(=O)ccc23)c1)O[C@H]1CN2CCC1CC2 (stereo partly specified)
10.60
O=C(NC(c1ccccc1)c1cccc(OCCCCCCCCCNC[C@H](O)c2ccc(O)c3[nH]c(=O)ccc23)c1)O[C@H]1CN2CCC1CC2 (stereo partly specified)
9.70
O=C(NC(c1ccccc1)c1cccc(OCCCCCCNC[C@H](O)c2ccc(O)c3[nH]c(=O)ccc23)c1)O[C@H]1CN2CCC1CC2 (stereo partly specified)
10.80
O=C(N[C@@H](c1ccccc1)c1ccc(-c2cccc(OCc3ccc(C(=O)NCCCNC[C@H](O)c4ccc(O)c5[nH]c(=O)ccc45)cc3)c2)cc1)O[C@H]1CN2CCC1CC2
10.90
O=C(N[C@H](c1ccccc1)c1cccc(OCCCCCCNC[C@H](O)c2ccc(O)c3[nH]c(=O)ccc23)c1)O[C@H]1CN2CCC1CC2
10.40
O=C(NC(c1ccccc1)c1ccc(OCCCCCCCCCNC[C@H](O)c2ccc(O)c3[nH]c(=O)ccc23)cc1)O[C@H]1CN2CCC1CC2 (stereo partly specified)
9.60
O=C(N[C@@H](c1ccccc1)c1ccc(-c2cccc(OCc3ccc(C(=O)N(CCCNC[C@H](O)c4ccc(O)c5[nH]c(=O)ccc45)Cc4ccccc4)cc3)c2)cc1)O[C@H]1CN2CCC1CC2
10.00
O=C(NC(c1ccccc1)c1cccc(OCCCCCCCNC[C@H](O)c2ccc(O)c3[nH]c(=O)ccc23)c1)O[C@H]1CN2CCC1CC2 (stereo partly specified)
10.00

----------
target: Muscarinic acetylcholine receptor M3 (Homo sapiens)
Quick reference for Ki among some molecules
propertyLabel: Ki (nM)

O=C(NC(c1ccccc1)c1cccc(OCCCCCCCCCNC[C@H](O)c2ccc(O)c3[nH]c(=O)ccc23)c1)O[C@H]1CN2CCC1CC2 (stereo partly specified)
0.251
O=C(N[C@@H](c1ccccc1)c1ccc(-c2cccc(OCc3ccc(C(=O)N(CCCNC[C@H](O)c4ccc(O)c5[nH]c(=O)ccc45)Cc4ccccc4)cc3)c2)cc1)O[C@H]1CN2CCC1CC2
0.126
O=C(NC(c1ccccc1)c1cccc(OCCCCCCCNC[C@H](O)c2ccc(O)c3[nH]c(=O)ccc23)c1)O[C@H]1CN2CCC1CC2 (stereo partly specified)
0.398
O=C(NC(c1ccccc1)c1cccc(OCCCCCNC[C@H](O)c2ccc(O)c3[nH]c(=O)ccc23)c1)O[C@H]1CN2CCC1CC2 (stereo partly specified)
0.398
O=C(N[C@H](c1ccccc1)c1cccc(OCCCCCCNC[C@H](O)c2ccc(O)c3[nH]c(=O)ccc23)c1)O[C@H]1CN2CCC1CC2
3.98
O=C(N[C@@H](c1ccccc1)c1ccc(-c2cccc(OCc3ccc(C(=O)NCCCNC[C@H](O)c4ccc(O)c5[nH]c(=O)ccc45)cc3)c2)cc1)O[C@H]1CN2CCC1CC2
0.1

----------
molecular target: Muscarinic acetylcholine receptor M3 (Homo sapiens, UniProt P20309)
Sequence (P20309 whole entry): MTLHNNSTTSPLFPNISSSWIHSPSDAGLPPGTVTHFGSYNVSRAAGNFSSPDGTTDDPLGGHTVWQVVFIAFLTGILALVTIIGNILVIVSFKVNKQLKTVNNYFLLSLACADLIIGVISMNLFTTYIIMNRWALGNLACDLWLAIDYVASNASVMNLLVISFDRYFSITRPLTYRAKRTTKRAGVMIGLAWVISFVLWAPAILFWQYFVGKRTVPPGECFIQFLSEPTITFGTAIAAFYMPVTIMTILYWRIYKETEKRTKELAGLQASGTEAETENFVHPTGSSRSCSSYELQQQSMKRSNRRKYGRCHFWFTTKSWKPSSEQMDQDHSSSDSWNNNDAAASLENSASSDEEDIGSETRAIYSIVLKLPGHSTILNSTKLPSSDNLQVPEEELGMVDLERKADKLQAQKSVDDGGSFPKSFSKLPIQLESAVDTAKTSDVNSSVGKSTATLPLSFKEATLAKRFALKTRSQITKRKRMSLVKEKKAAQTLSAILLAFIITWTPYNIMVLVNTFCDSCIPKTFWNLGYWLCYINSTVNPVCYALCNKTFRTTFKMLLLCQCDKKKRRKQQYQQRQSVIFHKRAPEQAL
propertyLabel: Ki (nM)

O=C(NC(c1ccccc1)c1cccc(OCCCCCCCCNC[C@H](O)c2ccc(O)c3[nH]c(=O)ccc23)c1)O[C@H]1CN2CCC1CC2 (stereo partly specified)
0.158
O=C(NC(c1ccccc1)c1ccc(OCCCCCCCCCNC[C@H](O)c2ccc(O)c3[nH]c(=O)ccc23)cc1)O[C@H]1CN2CCC1CC2 (stereo partly specified)
10
O=C(NC(c1ccccc1)c1cccc(OCCCCCCNC[C@H](O)c2ccc(O)c3[nH]c(=O)ccc23)c1)O[C@H]1CN2CCC1CC2 (stereo partly specified)
0.316
O=C(NC(c1ccccc1)c1ccccc1)O[C@H]1CN2CCC1CC2
1.26
CCN(CCCNC[C@H](O)c1ccc(O)c2[nH]c(=O)ccc12)C(=O)c1ccc(COc2cccc(-c3ccc([C@@H](NC(=O)O[C@H]4CN5CCC4CC5)c4ccccc4)cc3)c2)cc1
0.251
O=C(N[C@@H](c1ccccc1)c1cccc(OCCCCCCNC[C@H](O)c2ccc(O)c3[nH]c(=O)ccc23)c1)O[C@H]1CN2CCC1CC2
0.126

----------
assay: Antagonist activity at muscarinic M3 receptor in guinea pig trachea assessed as inhibition of carbachol-induced contraction; assay type: tissue-based, Cavia porcellus
Returns one of Condition met or Condition not met; Condition met when pIC50 is >= 9.

O=C(NC(c1ccccc1)c1ccc(OCCCCCCCCCNC[C@H](O)c2ccc(O)c3[nH]c(=O)ccc23)cc1)O[C@H]1CN2CCC1CC2 (stereo not given in full)
Condition not met
O=C(NC(c1ccccc1)c1cccc(OCCCCCCCCCNC[C@H](O)c2ccc(O)c3[nH]c(=O)ccc23)c1)O[C@H]1CN2CCC1CC2 (stereo not given in full)
Condition not met
O=C(N[C@@H](c1ccccc1)c1ccc(-c2cccc(OCc3ccc(C(=O)NCCCNC[C@H](O)c4ccc(O)c5[nH]c(=O)ccc45)cc3)c2)cc1)O[C@H]1CN2CCC1CC2
Condition met
O=C(N[C@@H](c1ccccc1)c1ccc(-c2cccc(OCc3ccc(C(=O)N(CCCNC[C@H](O)c4ccc(O)c5[nH]c(=O)ccc45)Cc4ccccc4)cc3)c2)cc1)O[C@H]1CN2CCC1CC2
Condition not met
CCN(CCCNC[C@H](O)c1ccc(O)c2[nH]c(=O)ccc12)C(=O)c1ccc(COc2cccc(-c3ccc([C@@H](NC(=O)O[C@H]4CN5CCC4CC5)c4ccccc4)cc3)c2)cc1
Condition met
O=C(NC(c1ccccc1)c1cccc(OCCCCCCNC[C@H](O)c2ccc(O)c3[nH]c(=O)ccc23)c1)O[C@H]1CN2CCC1CC2 (stereo not given in full)
Condition met
O=C(NC(c1ccccc1)c1cccc(OCCCCCCCCNC[C@H](O)c2ccc(O)c3[nH]c(=O)ccc23)c1)O[C@H]1CN2CCC1CC2 (stereo not given in full)
Condition not met
O=C(NC(c1ccccc1)c1cccc(OCCCCCNC[C@H](O)c2ccc(O)c3[nH]c(=O)ccc23)c1)O[C@H]1CN2CCC1CC2 (stereo not given in full)
Condition not met
O=C(NC(c1ccccc1)c1cccc(OCCCCCCCNC[C@H](O)c2ccc(O)c3[nH]c(=O)ccc23)c1)O[C@H]1CN2CCC1CC2 (stereo not given in full)
Condition met
O=C(N[C@@H](c1ccccc1)c1cccc(OCc2ccc(CCNC[C@H](O)c3ccc(O)c4[nH]c(=O)ccc34)cc2)c1)O[C@H]1CN2CCC1CC2
Condition met

----------
biological target: beta-2 adrenergic receptor (guinea pig); test: Agonist activity at beta-2 adrenergic receptor in guinea pig trachea assessed as inhibition of histamine-induced contraction
Rule: Criterion met for pIC50 not less than 8, Criterion not met for anything less.

O=C(NC(c1ccccc1)c1ccc(OCCCCCCCCCNC[C@H](O)c2ccc(O)c3[nH]c(=O)ccc23)cc1)O[C@H]1CN2CCC1CC2 (stereo not given in full)
Criterion not met
O=C(N[C@@H](c1ccccc1)c1ccc(-c2cccc(OCc3ccc(C(=O)N(CCCNC[C@H](O)c4ccc(O)c5[nH]c(=O)ccc45)Cc4ccccc4)cc3)c2)cc1)O[C@H]1CN2CCC1CC2
Criterion met
O=C(N[C@@H](c1ccccc1)c1ccc(-c2cccc(OCc3ccc(C(=O)NCCCNC[C@H](O)c4ccc(O)c5[nH]c(=O)ccc45)cc3)c2)cc1)O[C@H]1CN2CCC1CC2
Criterion met
CCN(CCCNC[C@H](O)c1ccc(O)c2[nH]c(=O)ccc12)C(=O)c1ccc(COc2cccc(-c3ccc([C@@H](NC(=O)O[C@H]4CN5CCC4CC5)c4ccccc4)cc3)c2)cc1
Criterion met
O=C(NC(c1ccccc1)c1cccc(OCCCCCCNC[C@H](O)c2ccc(O)c3[nH]c(=O)ccc23)c1)O[C@H]1CN2CCC1CC2 (stereo not given in full)
Criterion met
O=C(NC(c1ccccc1)c1cccc(OCCCCCCCCCNC[C@H](O)c2ccc(O)c3[nH]c(=O)ccc23)c1)O[C@H]1CN2CCC1CC2 (stereo not given in full)
Criterion not met
O=C(NC(c1ccccc1)c1cccc(OCCCCCNC[C@H](O)c2ccc(O)c3[nH]c(=O)ccc23)c1)O[C@H]1CN2CCC1CC2 (stereo not given in full)
Criterion met
O=C(N[C@@H](c1ccccc1)c1cccc(OCc2ccc(CCNC[C@H](O)c3ccc(O)c4[nH]c(=O)ccc34)cc2)c1)O[C@H]1CN2CCC1CC2
Criterion met
